pKi data for Rat H3 (Rattus norvegicus) follow.
pKi: −log10 of the molar value.
observationType: pKi

[a] CC(C)N1CCc2cc(C(=O)N3CCCN(C4CCC4)CC3)ccc2C1
[b] O=C(c1ccc2c(c1)CCN(C(=O)c1ccc(Cl)cc1)C2)N1CCCN(C2CCC2)CC1
[c] CCC(=O)N1CCc2cc(C(=O)N3CCCN(C4CCC4)CC3)ccc2C1
Order these molecules (above) by their pKi, from the smallest value upward. Respond with the label ranking, as requested.
b, c, a

[I] O=C(c1ccc2c(c1)CCN(Cc1ccccc1)C2)N1CCN(C2CCC2)CC1
[II] O=C(c1ccc2c(c1)CCN(C(=O)C1CCCC1)C2)N1CCN(C2CCC2)CC1
[III] O=C(c1ccc2c(c1)CCN(C(=O)c1ccc(F)cc1F)C2)N1CCCN(C2CCC2)CC1
[IV] O=C(c1ccc2c(c1)CCN(C(=O)c1ccccc1)C2)N1CCN(C2CCC2)CC1
Order each entry by recorded pKi, climbing from the minimum. Respond with the label ranking, as requested.
II, IV, III, I

###

- targetDesc: UniProtKB Q9Y5N1
pKi: −log10 of the molar value.
observationType: pKi

moleculeSmiles	pKi
O=C(c1ccc2c(c1)CCN(C(=O)c1ccc(C3CCCCC3)cc1)C2)N1CCN(C2CCC2)CC1	7.00
O=C(c1ccc2c(c1)CCN(C(=O)c1ccc(F)cc1)C2)N1CCN(C2CCCCC2)CC1	6.96

[I] O=C(c1ccc2c(c1)CCN(C(=O)c1ccc([N+](=O)[O-])cc1)C2)N1CCN(C2CCC2)CC1
[II] N#Cc1cccc(C(=O)N2CCc3cc(C(=O)N4CCC[C@H]4CN4CCCC4)ccc3C2)c1
Larger number for pKi: I , or II ? Kindly state the label of the option you pick.
I

[P] O=C(c1ccc2c(c1)CCN(C(=O)C1CCCCC1)C2)N1CCC(N2CCCCC2)CC1
[Q] Cc1ccc(C(=O)N2CCc3cc(C(=O)N4CCN(C5CCC5)CC4)ccc3C2)cc1F
Larger number for pKi: P , or Q ? Kindly state the label of the option you pick.
Q

###

- targetDesc: human H3 receptor (Homo sapiens)
- Construct: expressed in transfected cells; host or cells: SK-N-MC sublines with reporter construct
- Sequence (Q9Y5N1 whole entry): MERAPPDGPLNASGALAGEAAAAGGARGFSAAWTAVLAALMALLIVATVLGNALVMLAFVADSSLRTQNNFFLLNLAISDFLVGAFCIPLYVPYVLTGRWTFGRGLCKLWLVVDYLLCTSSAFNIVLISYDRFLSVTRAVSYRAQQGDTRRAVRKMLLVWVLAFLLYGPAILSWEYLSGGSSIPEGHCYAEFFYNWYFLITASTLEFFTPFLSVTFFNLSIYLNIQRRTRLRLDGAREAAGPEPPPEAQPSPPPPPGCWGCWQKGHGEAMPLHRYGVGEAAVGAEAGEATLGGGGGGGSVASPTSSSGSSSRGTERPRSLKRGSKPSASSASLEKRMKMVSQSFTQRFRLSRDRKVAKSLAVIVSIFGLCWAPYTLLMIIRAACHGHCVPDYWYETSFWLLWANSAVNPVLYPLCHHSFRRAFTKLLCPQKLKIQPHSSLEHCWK
- assayInfo: Cyclic AMP Accumulation (human H3 receptor)
- Assay type: cell-based
- measurementConditions: SK-N-MC cells expressing a reporter construct and the human H3 receptor; average; read-out: Human pA2 (converted)
observationType: Kb (nM)

moleculeSmiles	targetDesc	Kb, nM
CC(C)N1CCCN(C(=O)c2ccc3c(c2)CCN(Cc2ccccc2)C3)CC1	human H3 receptor (Homo sapiens)	0.661

[A] O=C(c1ccc2c(c1)CN(C(=O)c1ccccc1)CC2)N1CCCN(C2CCC2)CC1
[B] O=C(c1ccc2c(c1)CCN(Cc1ccsc1)C2)N1CCN(C2CCC2)CC1
[C] CCCC(=O)N1CCc2cc(C(=O)N3CCC[C@H]3CN3CCCC3)ccc2C1
[D] CC(C)N1CCCN(C(=O)c2ccc3c(c2)CCNC3)CC1
hey, can you rank those compounds up there by Kb? biggest number first please Respond with the label ranking, as requested.
C, D, B, A

###

- targetDesc: cloned human H3 receptors (Homo sapiens)
- Construct: expressed in transfected cells; host or cells: SK-N-MC cells
- assayInfo: H3 Receptor Binding (Human)
- measurementConditions: cloned human H3 receptors stably expressed in SK-N-MC cells; average of the results obtained
pKi: −log10 of the molar value.
observationType: pKi

Some solved entries appear below for comparison.
molecule	pKi
CC(C)N1CCN(C(=O)c2ccc3c(c2)CCN(Cc2ccccc2)C3)CC1	7.55
O=C(C1CCCCC1)N1CCc2cc(C(=O)N3CCC[C@H]3CN3CCCC3)ccc2C1	8.05
O=C(c1ccc2c(c1)CCN(C(=O)C1CCCCC1)C2)N1CCN2CCCCC2C1 (stereo not drawn)	8.05
O=C(c1ccc2c(c1)CCN(C(=O)c1ccccc1)C2)N1CCN(C2CCCC2)CC1	7.00
CCCN1CCc2cc(C(=O)N3CCC(C(C)(C)C)CC3)ccc2C1	6.47

[1] CC(C)(C)c1ccc(C(=O)N2CCc3cc(C(=O)N4CCN5CCCCC5C4)ccc3C2)cc1 (stereo not drawn)
[2] O=C(c1ccc2c(c1)CCN(C(=O)c1ccccc1F)C2)N1CCN(C2CCCCC2)CC1
[3] CCCC(=O)N1CCc2cc(C(=O)N3CCC[C@H]3CN3CCCC3)ccc2C1
[4] O=C(c1ccc2c(c1)CCN(C(=O)c1cccc(Cl)c1)C2)N1CCCN(C2CCC2)CC1
[5] O=C(c1ccc2c(c1)CN(Cc1ccccc1)CC2)N1CCN(C2CCC2)CC1
Order each entry by recorded pKi, climbing from the minimum. Respond with the label ranking, as requested.
2, 1, 3, 5, 4
(2: 7.10, 1: 7.42, 3: 8.40, 5: 8.70, 4: 9.00)

###

- targetDesc: Rat H3 (Rattus norvegicus)
- assayInfo: Cyclic AMP Accumulation (rat H3 receptor)
- Assay type: cell-based
- Design: expressed in transfected cells; host or cells: SK-N-MC sublines with reporter construct
- measurementConditions: SK-N-MC cells expressing a reporter construct and the rat H3 receptor; average; read-out: Rat pA2 (converted)
observationType: Kb (nM)

moleculeSmiles	measurementUnits	testValue
CC(C)N1CCCN(C(=O)c2ccc3c(c2)CCNC3)CC1	nM	15.8

[1] CCC(=O)N1CCc2cc(C(=O)N3CCC[C@H]3CN3CCCC3)ccc2C1
[2] CC(C)N1CCCN(C(=O)c2ccc3c(c2)CCN(Cc2ccccc2)C3)CC1
[3] CC(C)N1CCN(C(=O)c2ccc3c(c2)CCN(Cc2ccc(Cl)cc2)C3)CC1
hey, can you rank those molecules up there by Kb? biggest number first please Respond with the label ranking, as requested.
3, 1, 2

###

pKi: −log10 of the molar value.
pKi data for cloned human H3 receptors (Homo sapiens, UniProt Q9Y5N1) follow.
observationType: pKi

Some solved entries appear below for comparison.
compound	pKi
O=C(CC1CCCC1)N1CCc2cc(C(=O)N3CCN(C4CCC4)CC3)ccc2C1	7.70
CC(C)N1CCc2cc(C(=O)N3CCCCC3)ccc2C1	5.74
O=C(c1ccc2c(c1)CN(C(=O)C1CCCC1)CC2)N1CCCN(C2CCC2)CC1	9.00

[I] CC(C)(C)C(=O)N1CCc2cc(C(=O)N3CCN(C4CCC4)CC3)ccc2C1
[II] O=C(c1ccc2c(c1)CCN(C(=O)C1CCCCC1)C2)N1CC2CCN(C3CCC3)C2C1 (stereo not drawn)
Among I and II , whose measured pKi is the smaller figure? Kindly state the label of the option you pick.
II
(II: 6.52, I: 7.82)

###

- targetDesc: human H3 receptor (Homo sapiens)
- Construct: expressed in transfected cells; host or cells: SK-N-MC sublines with reporter construct
- assayInfo: Cyclic AMP Accumulation (human H3 receptor)
- Format: cell-based
- measurementConditions: SK-N-MC cells expressing a reporter construct and the human H3 receptor; average; read-out: Human pA2 (converted)
observationType: Kb (nM)

Some solved entries appear below for comparison.
moleculeSmiles	observationType	measurementUnits	testValue
O=C(c1ccc2c(c1)CCN(C(=O)C1CCCC1)C2)N1CCN(C2CCC2)CC1	Kb	nM	8.51
CC(C)N1CCN(C(=O)c2ccc3c(c2)CCN(Cc2ccc(Cl)cc2)C3)CC1	Kb	nM	10.5
O=C(c1ccc2c(c1)CCN(Cc1ccccc1)C2)N1CCN(C2CCC2)CC1	Kb	nM	1.29
O=C(c1ccc2c(c1)CCN(C(=O)c1ccccc1)C2)N1CCCN(C2CCC2)CC1	Kb	nM	0.513
O=C(c1ccc2c(c1)CN(Cc1ccccc1)CC2)N1CCN(C2CCC2)CC1	Kb	nM	17.8

[I] CCC(=O)N1CCc2cc(C(=O)N3CCC[C@H]3CN3CCCC3)ccc2C1
[II] O=C(c1ccc2c(c1)CCN(C(=O)C1CCCCC1)C2)N1CCCN(C2CCC2)CC1
Among I and II , whose measured Kb is the smaller figure? Kindly state the label of the option you pick.
II

###

- targetDesc: Rat H3 (Rattus norvegicus, UniProt Q9QYN8)
- Sequence (Q9QYN8 whole entry): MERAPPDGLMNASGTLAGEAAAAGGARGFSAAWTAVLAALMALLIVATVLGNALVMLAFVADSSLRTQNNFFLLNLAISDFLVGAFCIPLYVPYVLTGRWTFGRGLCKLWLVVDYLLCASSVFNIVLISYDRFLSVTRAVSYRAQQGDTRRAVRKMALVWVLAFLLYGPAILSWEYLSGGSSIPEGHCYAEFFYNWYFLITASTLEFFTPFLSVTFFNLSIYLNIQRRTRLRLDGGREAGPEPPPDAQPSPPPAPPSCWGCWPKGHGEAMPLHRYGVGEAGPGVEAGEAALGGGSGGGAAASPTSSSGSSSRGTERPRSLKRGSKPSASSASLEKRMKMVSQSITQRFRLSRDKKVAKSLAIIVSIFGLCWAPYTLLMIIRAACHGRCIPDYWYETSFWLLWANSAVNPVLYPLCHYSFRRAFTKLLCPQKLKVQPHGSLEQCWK
- assayInfo: Cyclic AMP Accumulation (rat H3 receptor)
- Format: cell-based
- Set-up: expressed in transfected cells; host or cells: SK-N-MC sublines with reporter construct
- measurementConditions: SK-N-MC cells expressing a reporter construct and the rat H3 receptor; average; read-out: Rat pA2 (converted)
- Text: Sublines of SK-N-MC cells were created that expressed a reporter construct and either the human or rat H3 receptor. The pA2 values were obtained as described by Barbier et al. (2004). Data for compounds tested in these assays are presented in Table 3, as an average of the results obtained (NT=not tested).
observationType: Kb (nM)

Some solved entries appear below for comparison.
molecule	Kb, nM
O=C(c1ccc2c(c1)CCN(C(=O)C1CCCCC1)C2)N1CCN(C2CCC2)CC1 [Example 33]	13.8
O=C(c1ccc2c(c1)CN(C(=O)c1ccccc1)CC2)N1CCCN(C2CCC2)CC1 [Example 36]	3.8
O=C(c1ccc2c(c1)CCN(C(=O)C1CCCC1)C2)N1CCCN(C2CCC2)CC1 [Example 39]	3.02
O=C(c1ccc2c(c1)CCN(C(=O)C1CCCC1)C2)N1CCN(C2CCC2)CC1 [Example 32]	15.1
O=C(c1ccc2c(c1)CCN(Cc1ccccc1)C2)N1CCN(C2CCC2)CC1 [Example 18]	2.4
O=C(c1ccc2c(c1)CCN(C(=O)c1ccccc1)C2)N1CCCN(C2CCC2)CC1 [Example 35]	2.34

[P] O=C(c1ccc2c(c1)CCN(C(=O)C1CCCCC1)C2)N1CCCN(C2CCC2)CC1 [Example 40]
[Q] CCCC(=O)N1CCc2cc(C(=O)N3CCC[C@H]3CN3CCCC3)ccc2C1 [Example 46]
Among P and Q , whose measured Kb is the smaller figure? Kindly state the label of the option you pick.
P

All figures here come from patent US20090099158A1.
